The values you see were collected from patent US20090149485A1.

# subjectOfTest: GSK3-alpha (Homo sapiens, UniProt P49840)
# Construct: purchased Upstate 14-492
# Sequence (P49840 whole entry): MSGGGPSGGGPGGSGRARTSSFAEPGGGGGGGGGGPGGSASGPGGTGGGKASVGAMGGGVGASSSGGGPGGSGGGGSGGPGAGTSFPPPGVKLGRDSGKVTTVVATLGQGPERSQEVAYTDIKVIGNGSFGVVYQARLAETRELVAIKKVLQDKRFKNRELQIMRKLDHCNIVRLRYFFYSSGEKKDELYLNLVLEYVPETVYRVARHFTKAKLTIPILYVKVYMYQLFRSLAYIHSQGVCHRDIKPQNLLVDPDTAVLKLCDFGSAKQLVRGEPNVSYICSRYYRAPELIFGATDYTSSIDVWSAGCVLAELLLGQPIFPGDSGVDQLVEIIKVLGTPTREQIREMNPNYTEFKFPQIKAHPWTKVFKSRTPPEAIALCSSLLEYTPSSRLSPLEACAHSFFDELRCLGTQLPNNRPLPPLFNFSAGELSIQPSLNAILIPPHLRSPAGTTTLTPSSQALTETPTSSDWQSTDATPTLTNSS
# assayComment: GSK3-alpha Kinase-Glo Plus luminescent kinase assay
# Format: biochemical
# setupConditions: 10 μM compound, n=3, read-out: % Inhibition at 10 μM α
# Procedure: GSK3 assays were performed using Kinase-Glo® Plus Luminescent Kinase Assay Kit (Promega V3772/3/4 P), in assay buffer (50 mM HEPES, 30 mM Magnesium acetate, 1 mM EDTA and 1 mM EGTA, pH 7.5) in white 96-well-Optiplates (Perkin Elmer). […] Luminescence was measured using Wallac 1450 MicroBeta® TriLux (PerkinElmer) Liquid Scintillation and Luminescence Counter. The activity is expressed as a difference of the consumed ATP and total ATP.
measuredProperty: inhibition at 10 µM (%)
# unit: % | format: bare number

// known answers, use as guide
O=c1[nH]c(=O)n(Cc2ccc(F)cc2)cc1-c1cccs1 [Compound 3] = 11
O=c1[nH]cc(-c2ccco2)c(=O)n1Cc1ccccc1 [Compound 14] = 42

Could you now look at the following compound, please?
Bench note: what inhibition at 10 µM did N#Cc1cccc(Cn2cc(-c3cccs3)c(=O)[nH]c2=O)c1 [Compound 7] show?
16
